Values were extracted from ChEMBL document CHEMBL1129590.

# Measurement target: Epidermal growth factor receptor (Homo sapiens)
# Sequence (P00533 whole entry): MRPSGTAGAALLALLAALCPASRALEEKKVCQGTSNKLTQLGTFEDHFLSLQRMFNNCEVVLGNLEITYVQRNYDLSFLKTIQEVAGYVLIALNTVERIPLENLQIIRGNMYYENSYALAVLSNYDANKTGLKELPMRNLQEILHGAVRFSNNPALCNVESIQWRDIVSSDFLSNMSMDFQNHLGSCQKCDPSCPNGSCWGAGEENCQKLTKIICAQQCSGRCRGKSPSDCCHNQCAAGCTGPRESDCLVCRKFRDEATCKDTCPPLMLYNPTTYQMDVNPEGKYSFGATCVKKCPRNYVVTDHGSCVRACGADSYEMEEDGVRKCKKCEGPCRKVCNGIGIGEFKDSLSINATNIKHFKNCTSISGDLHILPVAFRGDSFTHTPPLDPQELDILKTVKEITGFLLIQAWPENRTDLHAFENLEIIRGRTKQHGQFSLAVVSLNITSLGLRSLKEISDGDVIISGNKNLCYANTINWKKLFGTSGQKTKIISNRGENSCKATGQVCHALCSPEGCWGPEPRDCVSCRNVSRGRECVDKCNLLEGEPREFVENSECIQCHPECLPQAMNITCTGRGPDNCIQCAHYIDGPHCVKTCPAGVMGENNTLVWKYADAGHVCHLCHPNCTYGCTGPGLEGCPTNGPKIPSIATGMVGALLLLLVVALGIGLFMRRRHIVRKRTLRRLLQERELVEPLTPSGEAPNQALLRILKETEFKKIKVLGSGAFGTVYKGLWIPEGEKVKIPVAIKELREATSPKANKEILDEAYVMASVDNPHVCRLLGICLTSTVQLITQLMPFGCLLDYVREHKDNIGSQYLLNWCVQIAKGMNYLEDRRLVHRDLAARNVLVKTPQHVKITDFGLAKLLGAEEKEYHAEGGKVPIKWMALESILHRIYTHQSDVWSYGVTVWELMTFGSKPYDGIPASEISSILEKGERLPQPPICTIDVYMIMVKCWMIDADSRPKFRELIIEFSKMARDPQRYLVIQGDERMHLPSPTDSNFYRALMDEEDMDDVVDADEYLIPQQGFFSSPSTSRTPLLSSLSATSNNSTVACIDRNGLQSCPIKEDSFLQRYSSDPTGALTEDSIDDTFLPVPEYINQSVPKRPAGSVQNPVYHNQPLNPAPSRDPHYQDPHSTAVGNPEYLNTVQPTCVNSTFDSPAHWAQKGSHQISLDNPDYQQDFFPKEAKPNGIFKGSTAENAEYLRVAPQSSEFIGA
# Procedure summary: Inhibitory activity of compound against Epidermal growth factor receptor autophosphorylation
Returns: string. Value is yes (1) if measured IC50 is below 20 µM, and no (0) if it is greater than or equal to it.

Compound: N#C/C(=C\c1ccc(O)c(O)c1)C(=O)NCc1cccc(CNC(=O)/C(C#N)=C/c2ccc(O)c(O)c2)c1
Class: yes (1)
//
Compound: N#C/C(=C\c1cc(O)c(O)c(Br)c1)C(=O)NCCCNC(=O)/C(C#N)=C/c1cc(O)c(O)c(Br)c1
Class: yes (1)
//
Compound: N#C/C(=C\c1ccc(O)c(O)c1)C(=O)NCC1CCCC(CNC(=O)/C(C#N)=C/c2ccc(O)c(O)c2)C1 (stereo not given)
Class: no (0)
//
Compound: N#C/C(=C\c1ccc(O)c(O)c1)C(=O)NCCCN1CCN(CCCNC(=O)/C(C#N)=C/c2ccc(O)c(O)c2)CC1
Class: no (0)
//
Compound: N#C/C(=C\c1cc(O)c(O)c(Br)c1)S(=O)(=O)/C(C#N)=C/c1cc(O)c(O)c(Br)c1
Class: yes (1)
//
Compound: N#C/C(=C\c1ccc(O)c(O)c1)C(=O)NCCNC(=O)/C(C#N)=C/c1ccc(O)c(O)c1
Class: no (0)
//
Compound: N#C/C(=C\c1cc(O)c(O)c([N+](=O)[O-])c1)C(=O)NCCCNC(=O)/C(C#N)=C/c1cc(O)c(O)c([N+](=O)[O-])c1
Class: no (0)
//
Compound: COc1cc(/C=C(\C#N)C(=O)NCCCCNC(=O)/C(C#N)=C/c2cc(OC)c(O)c([N+](=O)[O-])c2)cc([N+](=O)[O-])c1O
Class: yes (1)
//
Compound: N#C/C(=C\c1ccc(O)c(O)c1)C(=O)NC1CCC(CC2CCC(NC(=O)/C(C#N)=C/c3ccc(O)c(O)c3)CC2)CC1 (stereo not given)
Class: no (0)
//
Compound: N#C/C(=C\c1ccc(O)c(O)c1)C(=O)NC1CCCC[C@@H]1NC(=O)/C(C#N)=C/c1ccc(O)c(O)c1 (stereo not given in full)
Class: yes (1)

----------
Listed next: entries and their corresponding IC50.
# Measurement target: Epidermal growth factor receptor (Homo sapiens)
# Procedure summary: Inhibitory activity of compound against Epidermal growth factor receptor autophosphorylation

Mol smiles: N#C/C(=C\c1ccc(O)c(O)c1)C(=O)NCCCCCCCCCCNC(=O)/C(C#N)=C/c1ccc(O)c(O)c1
IC50: > 100 µM

Mol smiles: N#C/C(=C\c1ccc2[nH]ccc2c1)C(=O)NCCCNC(=O)/C(C#N)=C/c1ccc2[nH]ccc2c1
IC50: > 100 µM

Mol smiles: N#C/C(=C\c1ccc(O)c(O)c1)C(=O)NCN1CCN(C(=O)/C(C#N)=C/c2ccc(O)c(O)c2)CC1
IC50: > 83 µM
